src = ChEMBL document CHEMBL4837252

protocol_summary: Zinc ionophore activity assessed as uptake of zinc ions into liposomes by measuring increase in liposome-encapsulated FluoZin3-fluorescence at 10 uM measured after 1 hr in presence of ZnCl2 by fluorescence analysis relative to control
# fold change (FC) per entry
Reply with just the number.

The cases that follow already have their fold change (FC) on record.
compound="Oc1cc(O)c2c(c1)O[C@H](c1cc(O)c(O)c(O)c1)[C@H](O)C2 [EPIGALLOCATECHIN]" number=8
compound="O=C(O[C@@H]1Cc2c(O)cc(O)cc2O[C@@H]1c1cc(O)c(O)c(O)c1)c1cc(O)c(O)c(O)c1 [EPIGALOCATECHIN GALLATE]" number=28
compound=Oc1c(I)cc(Cl)c2cccnc12 number=40

Field: next compound
Can you look up the measured fold change (FC) of O=C(O[C@@H]1Cc2c(O)cc(O)cc2O[C@@H]1c1ccc(O)c(O)c1)c1cc(O)c(O)c(O)c1 [EPICATECHIN GALLATE] for me?
16
